Test Method Notes: MRT(0 to infinity) in Sprague-Dawley rat at 24 mg/kg, po by LC-MS analysis
Type: ADME, organism-based
Condition Set: in vivo
Observable: MRT inf (h)
Unit h implied. Number only.

Ask | Reported MRT inf, molecule Cc1cc(/C=C/C#N)cc(C)c1Oc1nc(NC2CCN(Cc3ccc(S(N)(=O)=O)cc3)CC2)nc2ccsc12 : ____
Reply | 5.54

---

Test Method Notes: Selectivity index, ratio of CC50 for human MT4 cells to EC50 for HIV1 RES056 reverse transcriptase K103N/Y181C double mutant infected in human MT4 cells
Condition Set: MT4 cells
Reported selectivity ratio is given for each of the following compounds.
Lab note: jot down the number only; don't add units.

Consider the worked cases shown below.
Record Smiles | selectivity ratio
Cc1cc(/C=C/C#N)cc(C)c1Oc1nc(NC2CCN(Cc3ccccc3C#N)CC2)nc2ccsc12 | 7
Cc1ccccc1CN1CCC(Nc2nc(Oc3c(C)cc(/C=C/C#N)cc3C)c3sccc3n2)CC1 | 3
Cc1cc(/C=C/C#N)cc(C)c1Oc1nc(NC2CCN(Cc3cccnc3)CC2)nc2ccsc12 | 308
Cc1cc(/C=C/C#N)cc(C)c1Oc1nc(NC2CCN(Cc3ccc(F)cc3)CC2)nc2ccsc12 | 20
Cc1cc(/C=C/C#N)cc(C)c1Oc1nc(NC2CCN(Cc3cccc(F)c3)CC2)nc2ccsc12 | 38
Cc1cc(/C=C/C#N)cc(C)c1Oc1nc(NC2CCN(Cc3ccc(Cl)cc3)CC2)nc2ccsc12 | 20
Cc1cc(C#N)cc(C)c1Oc1nc(NC2CCN(Cc3ccc(S(C)(=O)=O)cc3)CC2)nc2sccc12 | 28
Cc1cc(/C=C/C#N)cc(C)c1Oc1nc(NC2CCN(Cc3ccc([N+](=O)[O-])cc3)CC2)nc2ccsc12 | 32

Ask | Bench note: what selectivity ratio did COC(=O)c1ccc(CN2CCC(Nc3nc(Oc4c(C)cc(C#N)cc4C)c4ccsc4n3)CC2)cc1 show?
Reply | 19

Ask | And the next one, Cc1cc(/C=C/C#N)cc(C)c1Oc1nc(NC2CCN(Cc3cccc(C(N)=O)c3)CC2)nc2ccsc12 ?
Reply | 81

Ask | Item: Cc1cc(/C=C/C#N)cc(C)c1Oc1nc(NC2CCN(Cc3ccncc3)CC2)nc2ccsc12
Reply | 162

Ask | Ok, now Cc1ccc(CN2CCC(Nc3nc(Oc4c(C)cc(/C=C/C#N)cc4C)c4sccc4n3)CC2)cc1
Reply | 20

Ask | Same read-out for Cc1cc(/C=C/C#N)cc(C)c1Oc1nc(NC2CCN(Cc3ccc(C#N)cc3)CC2)nc2ccsc12 ?
Reply | 45

Ask | Item: Cc1cc(/C=C/C#N)cc(C)c1Oc1nc(NC2CCN(Cc3ccc(Br)cc3)CC2)nc2ccsc12
Reply | 44

---

The following compounds are listed with their measured selectivity ratio values.
Test Method Notes: Selectivity index, ratio of CC50 for human MT4 cells to EC50 for reverse transcriptase F227L/V106A double mutant in human MT4 cells infected HIV1 3B
Condition Set: MT4 cells
I only need the number, thanks.

Record Smiles | selectivity ratio
Cc1cc(/C=C/C#N)cc(C)c1Oc1nc(NC2CCN(Cc3ccc(Br)cc3)CC2)nc2ccsc12 | 42
Cc1cc(/C=C/C#N)cc(C)c1Oc1nc(NC2CCN(Cc3cccnc3)CC2)nc2ccsc12 | 664
Cc1cc(/C=C/C#N)cc(C)c1Oc1nc(NC2CCN(Cc3ccc(C#N)cc3)CC2)nc2ccsc12 | 118
Cc1cc(/C=C/C#N)cc(C)c1Oc1nc(NC2CCN(Cc3ccccc3Br)CC2)nc2ccsc12 | 63

# context switch: different compound, same selectivity ratio
Ask | Quick one: selectivity ratio for Cc1cc(/C=C/C#N)cc(C)c1Oc1nc(NC2CCN(Cc3ccccn3)CC2)nc2ccsc12 ?
Reply | 144

---

Test Method Notes: Selectivity index, ratio of CC50 for human MT4 cells to EC50 for reverse transcriptase L100I mutant in human MT4 cells infected HIV1 3B
Condition Set: MT4 cells
Observable: selectivity ratio
// response body must contain only the number

Ask | I have this molecule here, Cc1cc(/C=C/C#N)cc(C)c1Oc1nc(NC2CCN(Cc3ccccc3Br)CC2)nc2ccsc12 , and I need its recorded selectivity ratio.
Reply | 117

Ask | Further, for Cc1cc(/C=C/C#N)cc(C)c1Oc1nc(NC2CCN(Cc3cccc(C(N)=O)c3)CC2)nc2ccsc12 ?
Reply | 689

Ask | Can you handle Cc1cc(/C=C/C#N)cc(C)c1Oc1nc(NC2CCN(Cc3ccc(C#N)cc3)CC2)nc2ccsc12 next?
Reply | 364

---

Recorded selectivity ratio values for a group of molecules are listed next.
Test Method Notes: Selectivity index, ratio of CC50 for human MT4 cells to EC50 for reverse transcriptase K103N mutant in human MT4 cells infected HIV1 3B
Condition Set: MT4 cells

Example cases with answers are listed next.
Molecule | Reported
CCOC(=O)c1ccc(CN2CCC(Nc3nc(Oc4c(C)cc(/C=C/C#N)cc4C)c4sccc4n3)CC2)cc1 | ≥ 273
Cc1cc(/C=C/C#N)cc(C)c1Oc1nc(NC2CCN(Cc3cccc(Br)c3)CC2)nc2ccsc12 | 269
Cc1cc(/C=C/C#N)cc(C)c1Oc1nc(NC2CCN(Cc3ccccc3Br)CC2)nc2ccsc12 | 124
Cc1cc(/C=C/C#N)cc(C)c1Oc1nc(NC2CCN(Cc3ccc([N+](=O)[O-])cc3)CC2)nc2ccsc12 | 365

Ask | Reported selectivity ratio, molecule Cc1cc(C#N)cc(C)c1Oc1nc(NC2CCC(NCc3ccc(Br)cc3)CC2)nc2ccsc12 (stereo not drawn) : ____
Reply | ≤ 5

Ask | What do you have for Cc1cc(/C=C/C#N)cc(C)c1Oc1nc(NC2CCN(Cc3ccc(Cl)cc3)CC2)nc2ccsc12 ?
Reply | 159

Ask | Ok, now Cc1cc(C#N)cc(C)c1Oc1nc(NC2CCC(NCc3ccc(F)cc3)CC2)nc2ccsc12 (stereo not drawn)
Reply | 3

Ask | How about this molecule: Cc1cc(/C=C/C#N)cc(C)c1Oc1nc(NC2CCN(Cc3cccc(F)c3)CC2)nc2ccsc12
Reply | 226

Ask | And for Cc1cc(C#N)cc(C)c1Oc1nc(NC2CCN(Cc3ccc(S(N)(=O)=O)cc3)CC2)nc2sccc12 ?
Reply | 7370

Ask | Cool, now Cc1cc(C#N)cc(C)c1Oc1nc(NC2CCC(NCc3ccc(S(C)(=O)=O)cc3)CC2)nc2ccsc12 (stereo not drawn)
Reply | 212

Ask | Can you check Cc1cc(/C=C/C#N)cc(C)c1Oc1nc(NC2CCN(Cc3ccc(F)cc3)CC2)nc2ccsc12 next?
Reply | 405

---

Test Method Notes: Cytotoxicity against human MT4 cells assessed as cell viability after 5 days by MTT assay
Assay type: cell-based
Criterion: CC50 at 120 h strictly under 5 µM. Met: Met. Not met: Not met.

Some solved cases for reference:
Compound | Cat
Cc1cc(/C=C/C#N)cc(C)c1Oc1nc(NC2CCN(Cc3cccc(F)c3)CC2)nc2ccsc12 | Met
Cc1cc(C#N)cc(C)c1Oc1nc(NC2CCN(Cc3ccc(S(N)(=O)=O)cc3)CC2F)nc2ccsc12 (configuration not stated) | Not met
Cc1cc(/C=C/C#N)cc(C)c1Oc1nc(NC2CCN(Cc3ccccc3Br)CC2)nc2ccsc12 | Not met
Cc1cc(/C=C/C#N)cc(C)c1Oc1nc(NC2CCN(Cc3ccc(F)cc3)CC2)nc2ccsc12 | Met
Cc1cc(C#N)cc(C)c1Oc1nc(NC2CCC(NCc3ccc(S(N)(=O)=O)cc3)CC2)nc2ccsc12 (configuration not stated) | Met
Cc1cc(/C=C/C#N)cc(C)c1Oc1nc(NC2CCN(Cc3ccc(Br)cc3)CC2)nc2ccsc12 | Not met

Ask | Threshold test, CC50 at 120 h < 5 µM: CCOC(=O)C1CN(Cc2ccc(S(N)(=O)=O)cc2)CCC1Nc1nc(Oc2c(C)cc(C#N)cc2C)c2sccc2n1 (configuration not stated)
Reply | Met

---

Test Method Notes: Cmax in Sprague-Dawley rat at 24 mg/kg, po by LC-MS analysis
Format: ADME, organism-based
Set-up: dose 24 mg/kg, route oral
Condition Set: in vivo
Observable: Cmax (ng/mL)
The reply should be a number in ng/mL, with the unit left off.

Ask | Please give the measured Cmax for this compound: Cc1cc(/C=C/C#N)cc(C)c1Oc1nc(NC2CCN(Cc3ccc(S(N)(=O)=O)cc3)CC2)nc2ccsc12
Reply | 553

---

Test Method Notes: Cmax in Sprague-Dawley rat at 2 mg/kg, iv by LC-MS analysis
Format: ADME, organism-based
Parameters: dose 2 mg/kg, route intravenous
Condition Set: in vivo
Observable: Cmax (ng/mL)
The reply should contain only the number, in ng/mL.

Ask | Please report the recorded Cmax for Cc1cc(/C=C/C#N)cc(C)c1Oc1nc(NC2CCN(Cc3ccc(S(N)(=O)=O)cc3)CC2)nc2ccsc12 .
Reply | 2220
